List of MIC values.
- System: E. coli DH5α
- PROTOCOL_SUMMARY: Antibacterial activity: MIC and growth curve against E. coli DH5α in 96-well plate
- Format: cell-based
- TEST_SETTINGS: minimal inhibitory concentration against E. coli DH5α; 96-well plate, 5×10^5 CFU/mL, 37° C., judged after 8 h
Answer format: numeric, µg/mL implied, no suffix.

SUBSTANCE | RECORDED_VALUE
PRT1113 (HVDPCHSAPCARGRCHTHPDGRFECRCPPGFGGPRCR; listed as Homo sapiens) | 12.5

IN: Respond only with MIC recorded for PRT825 (FGPNCTHVCGCGQGAACDPVTGTCLCPPGRAGVRCE; listed as Homo sapiens)
OUT: 25

IN: Answer with reported MIC of PRT1175 (AEHACLSDPCHNRGSCKETSLGFECECSPGWTGPTCS; listed as Homo sapiens)
OUT: 12.5

IN: Output measured MIC for this item: PRT1042 (SGFFCPSTHSCQNGGVFQTPQGSCSCPPGWMGTICS; listed as Homo sapiens)
OUT: 25

IN: Read the entry PRT262 (CLIHHGGCHIHAECIPTGPQQVSCSCREGYSGDGIRTC; listed as Homo sapiens) and write its reported MIC.
OUT: 12.5

IN: Please give the documented MIC of PRT413 (DVNECITGSHSCRLGESCINTVGSFRCQRDSSCGTGYELTEDNSCK; listed as Homo sapiens)
OUT: 12.5

IN: Determine from records and report MIC for PRT1352 (SEPECPGNCHLRGRCIDGQCICDDGFTGEDCS; listed as Homo sapiens)
OUT: 12.5

IN: Please give measured MIC of the following entry: PRT660 (DHDECQDLACENGECVNTEGSFHCFCSPPLTLDLSQQRCM; listed as Homo sapiens)
OUT: 12.5

IN: Give MIC for PRT455 (DVNECSQENGGCLQICHNKPGSFHCSCHSGFELSSDGRTCQ; listed as Homo sapiens)
OUT: 50

IN: Return MIC (reported value) for this substance: PRT176 (APLVCRAGCSPEHGFCEQPGECRCLEGWTGPLCT; listed as Homo sapiens)
OUT: 25

IN: Return the recorded MIC value; entry: PRT904 (NTPDCTESSCFNGGTCVDGINSFTCLCPPGFTGSYCQ; listed as Homo sapiens)
OUT: 50

* * *

- Tested on: Moraxella catarrhalis
- PROTOCOL_SUMMARY: MIC against Gram-negative bacteria: Moraxella catarrhalis
- Assay type: cell-based
- TEST_SETTINGS: M. catarrhalis; 10 h cultivation at 37° C.; 5×10^5 CFU/mL
ENDPOINT: MIC (μg/mL) M. catarrhalis (µg/mL)
Write down the numeric answer in µg/mL and omit the unit.

Worked cases, MIC (μg/mL) M. catarrhalis given:
SUBSTANCE | ENDPOINT | RECORDED_VALUE
PRT788 (WGPHCTSRCQCKNGALCNPITGACHCAAGFRGWRCE; listed as Homo sapiens) | MIC (μg/mL) M. catarrhalis | 25
PRT806 (FGFQCSQHCDCHNGGQCSPTTGACECEPGYKGPRCQ; listed as Homo sapiens) | MIC (μg/mL) M. catarrhalis | 25
PRT162 (LIDFCALSPCAHGTCRSVGTSYKCLCDPGYHGLYCE; listed as Homo sapiens) | MIC (μg/mL) M. catarrhalis | 12.5

IN: # assay system Moraxella catarrhalis: give MIC (μg/mL) M. catarrhalis of PRT772 (TIVSTESLETLAPGLCQEGQIWNGKQCVCPQGYVGYQCL; listed as Homo sapiens)
OUT: 25
